apparent KD of MS2 coat protein values, listed per item
tested on: MS2 coat protein; test: apparent KD of MS2 coat protein; designed switch direction (-1 OFF switch, 1 ON switch): -1; higher = weaker reporter binding; conditions: input ligand: FMN 200 uM

seq_string | apparent KD of MS2 coat protein (nM)
UUUUUAGUGCUUUUUAAGUACAUGAGGAUCACCCAUGUACUUGUCUGGUGGUCCGGACAAGCUUUUUGCUCGUCUAG [Sensor v3 - turn-off variant 1 - 3] (Eterna round: R96, puzzle: Sensor v3, turn-off variant 1) | 35.6
CUUUAGUGAGGAUAUUAGUAGUAAUACAAUAGUAUUACUACUGAGAAGGCACAUGAGGAUCACCCAUGUUCCUC [Mat - Exclusion 4 - Mod of Omei - D79] (Eterna round: R96, puzzle: Exclusion 4) | 303
UUUACAAGCUAUUGAUCCCACAUGAGGAUCACCCAUGUUGCUGCCGUGAGGUAGCUUUUAACAAUUGCUCGUCUUAU [JL TOV1 3.38] (Eterna round: R97, puzzle: Sensor, turn-off variant 1) | 424
CAGCGAACAGGAUAUACAUGAGGAUCACCCAUGUGUUCCAGCUAGGAAACUAGCAAAUGUAGAAGGGUUCGCUG [Mat - Exclusion 3 - JL Mod - D2] (Eterna round: R97, puzzle: Exclusion 3) | 584
GACCAGGAAGGAUAUACAUACGGUUCGUGCCUUGGGCUGCGACAUGAGGAUCACCCAUGUAGAAGGUCCAGGUC [EX2 B.18] (Eterna round: R97, puzzle: Exclusion 2) | 47.1

====

system: MS2 coat protein; assay: apparent KD of MS2 coat protein; designed switch direction (-1 OFF switch, 1 ON switch): -1; higher = weaker reporter binding; details: input ligand: microRNA oligo, concentration not stated

seq_string | study_system | apparent KD of MS2 coat protein
AAGAACCCGGUAGGAUAUAUUGUGGGCAAACAUGGAACAACAUGAGGAUCACCCAUGUAAUUUAGGUAGAAGGGCCAAAAGAGA [Default title] (Eterna round: R96, puzzle: Exclusion NG 2) | MS2 coat protein | 51.6 nM
GUGAGGGAGUGAGGAUAUCAGGGAGGUGGGAAAUGAGAAGGUACAUGAGGAUCACCCAUGUAAGAGUAGGGAAGAGAGAAGAGU [Default title] (Eterna round: R96, puzzle: Exclusion NG 1) | MS2 coat protein | 109 nM
UAUAUAUAGUAAGGAUAUGUAUAAAUUUUAUAAACAGAAGGUACUGACAUGAGGAUCACCCAUGUUUUAGUGUGGGCAUGUAGA [JMF's solution 52] (Eterna round: R96, puzzle: Exclusion NG 1) | MS2 coat protein | 74.6 nM
AAUGAUUGACGAGGAUAUUGUGGUGAAACACGACGAGAAGGCGUAUGUCACAUGAGGAUCACCCAUGUGUGCUUUGUGGAUAUA [Ex NG1 #69] (Eterna round: R96, puzzle: Exclusion NG 1) | MS2 coat protein | 24.2 nM
UUGUUAUAUGUAGGAUAUGCGUAUUGUUAUUAUGCAGAAGGACAUGAGGAUCACCCAUGUAUAUUAUUAUUAUAUAUUAUAUAU [Title] (Eterna round: R96, puzzle: Exclusion NG 1) | MS2 coat protein | 22.2 nM

====

tested on: MS2 coat protein; test: apparent KD of MS2 coat protein; designed switch direction (-1 OFF switch, 1 ON switch): 1; higher = weaker reporter binding; settings: Eterna round: R95; input ligand: none
The threshold is inclusive: apparent KD of MS2 coat protein of exactly 0.1 µM counts as TRUE; values below receive FALSE.

seq_string | label_class
AGUCCAGCCAAAGCUGGACAAAAGCAUGUACAUGAGGAUCACCCAUGUCAUGUACAAGCUUUUUGCUCGUCUUAAUA [Mat - hsa-mir-208a - Mod of JL - D38] (puzzle: Sensor for hsa-mir-208a) | TRUE
ACGCAGCUAGGUGAGGAUAUCGGUGGUAAAACAUGAGGAUCACCCAUGUCCGAAGCUCGGACUUCCGAGAAGGCGCCCGGCUGCA [Velaberi] (puzzle: Same State 2) | FALSE
GCUUCACAUGAGGAUCACCCAUGUCGUCGGAGUCGAGGAUAUGGUAACUGUAAACAGUUGCCAGAAGGCGAGGAGC [SS1 - Son of Teenbexe v10] (puzzle: Same State 1) | FALSE
CUAUCUACAGGUUUCAGUGCUCGUCUUAUACAUGAGGAUCACCCAUGUUAUAGCCCGGUGCUUGCGCUGGGCUGAUU [JL ViennaUCT Tearor mod 3] (puzzle: Sensor for hsa-mir-208a) | FALSE
AGUCCAGCGAAAGCUGGACAAAAGCAUGUACAUGAGGAUCACCCAUGUUCAUGUACAGGCUUUUUGCUCGUCUUAAA [JL mod - D95 - 8] (puzzle: Sensor for hsa-mir-208a) | TRUE
UAGUACAAGCUUUUUGCUUGUCUUAUUUAACAUGAGGAUCACCCAUGUAAGUUGAAAGUUAGAGAGUGCACCUUCAA [JR_SHM208A_Sub052] (puzzle: Sensor for hsa-mir-208a) | FALSE
GGAGCCGGCACCGAGGAUAUUCAUAUUAAAACAUGAGGAUCACCCAUGUAGAGCGAAAGCUCUUGGGAGAAGGCGGAUCGGCUCG [Xeonanis - 28] (puzzle: Same State 2) | TRUE
AUAAAACAUGAGGAUCACCCAUGUCAACAAAGUCGAGGAUAUGGUCAAAUAAAAUAAGAACCAGAAGGCGAAUAAU [salish99_ss1_r3_029] (puzzle: Same State 1) | FALSE
CGUCCGGCCUGAGCUGGACGGAGGCAUGUACAUGAGGAUCACCCAUGUUCAUGUGCAGGCUUUUUGCUCGUCUUGUG [JL-shm-2.07 JL mod] (puzzle: Sensor for hsa-mir-208a) | FALSE
AGUCCAGCCUGAGCUGGACAAAAGCAUGUACAUGAGGAUCACCCAUGUUCAUGUACAAGCUUUUUGCUCGUCUUGUA [salish99_208a_r3_102x] (puzzle: Sensor for hsa-mir-208a) | TRUE

====

Below, each entry is listed with its recorded apparent KD of MS2 coat protein.
test system: MS2 coat protein; test: apparent KD of MS2 coat protein; designed switch direction (-1 OFF switch, 1 ON switch): -1; higher = weaker reporter binding; details: input ligand: none

seq_string | apparent KD of MS2 coat protein
CUGAGAUGAGGAUAUACAUGAGGAUCACCCAUGUAAAGUAGCUUGCGUACAGGCAGAUGUAGAAGGCAUUUCGG [Mod of JL 4 - Jieux - Exclusion 3] (Eterna round: R97, puzzle: Exclusion 3) | 25.3 nM
GCCUCACAUGAGGAUCACCCAUGUCAGGAUAUACCCAUCCAGCGAAAUAAACGCUGUAGUAGAAGGGACAUGCA [Anlaat] (Eterna round: R97, puzzle: Exclusion 1) | 15.3 nM
CAUAUACAUGAGGAUCACCCAUGUGAGGAUAUGCUUUAUUAUUAUUAUUAUUAUUAUUGCAGAAGGUACAUUAC [LRO-Excl01-12] (Eterna round: R97, puzzle: Exclusion 1) | 24.6 nM
CGUAAGUGAGGAUAUCGUAGAGGAGACAUGAGGAUCACCCAUGUGUCAAGCGGUCCCGAAUGAGAAGGCACUGGUU [EX5 B.25] (Eterna round: R97, puzzle: Exclusion 5) | 20.3 nM
UUGGGCAGAGGAUAUCGUACGUAGCACAUGAGGAUCACCCAUGUGGCCAGCCGCUAAACAUGAGAAGGUUGUGUAC [Eternabot (Original) Solution 8] (Eterna round: R97, puzzle: Exclusion 5) | 14.3 nM
AGUGCUGCAGGAUAUUCUAUUAAUUACAUGAGGAUCACCCAUGUGAAUGGACAAGGGUGUGAAGAAGGGUGGUACG [Omei Ex5 A17i] (Eterna round: R97, puzzle: Exclusion 5) | 496 nM
ACAUGAGGAUCACCCAUGUCCGGCUGGUCCGUCUCGGCUGUCGAGGAUAUAGCUCGGUGUCCGCGCUAGAAGGCGGGAGCCGGC [Aenatbe mod 83] (Eterna round: R96, puzzle: Exclusion NG 3) | 73.4 nM
AUGUUGCGAGGAUAUAUUUACUUGUUGUUAUUUGGUUGGGAACAUGAGGAUCACCCAUGUAGAAGGUGCAUAAC [JR_Ex2_Sub035] (Eterna round: R97, puzzle: Exclusion 2) | 62.5 nM
AAACCUGAAGUUAGGAUAUGAAGUAUCACUAUACUUCAGAAGGAACUUGAGGAUCACCCAAGUAGCCGUGAGGC [jl-bmx4.4.66 ViennaUCT mod] (Eterna round: R97, puzzle: Brourd's mod of Exclusion 4) | 23 nM
AAUAACAUGUUGAUCAAAGACAUGAGGAUCACCCAUGUCAGCUUUUUGUUCGUAGAUUAACACUAAUAAUAAUAAUA [Stov1new/2-C] (Eterna round: R97, puzzle: Sensor, turn-off variant 1) | 16.5 nM
